Let's look at some compounds and their measured residual activity.
# subject of test: PASK (human)
# test name: radiometric filter-binding kinase assay, Kinase HotSpot
# test conditions: compound 0.5 µM; ATP 10 µM

[
  {
    "compound": "CCN1/C(=C/C(C)=O)Sc2ccc(OC)cc21",
    "residual activity, %": 72.8
  },
  {
    "compound": "COc1cc2nccc(Oc3ccc(NC(=S)NC(=O)c4ccccc4C)cc3)c2cc1OC",
    "residual activity, %": 93.6
  },
  {
    "compound": "O=c1cc(N2CCNCC2)oc2c(-c3ccccc3)cccc12",
    "residual activity, %": 93
  },
  {
    "compound": "C#Cc1cccc(Nc2ncnc3cc(OCCOC)c(OCCOC)cc23)c1",
    "residual activity, %": 97.4
  },
  {
    "compound": "Nc1nc(Nc2ccc(S(N)(=O)=O)cc2)nn1C(=S)Nc1c(F)cccc1F",
    "residual activity, %": 91.8
  },
  {
    "compound": "Clc1ccc(Nc2nnc(Cc3ccncc3)c3ccccc23)cc1",
    "residual activity, %": 101
  },
  {
    "compound": "CS(=O)c1ccc(-c2nc(-c3ccc(F)cc3)c(-c3ccncc3)[nH]2)cc1 (stereo not given)",
    "residual activity, %": 99.1
  },
  {
    "compound": "O=C(NC(NC(=S)Nc1ccc(F)c([N+](=O)[O-])c1)C(Cl)(Cl)Cl)C(c1ccccc1)c1ccccc1 (stereo not given)",
    "residual activity, %": 104
  },
  {
    "compound": "O=C1Cc2c([nH]c3ccc([N+](=O)[O-])cc23)-c2ccccc2N1",
    "residual activity, %": 86.9
  },
  {
    "compound": "Cc1ccc(NC(=O)c2ccc(CN3CCN(C)CC3)cc2)cc1Nc1nc(-c2cccnc2)cs1",
    "residual activity, %": 103
  }
]

* * *

Let's look at some compounds and their measured residual activity.
# subject of test: ROCK1 (human) (UniProt Q13464)
# Sequence (Q13464 whole entry, looked up): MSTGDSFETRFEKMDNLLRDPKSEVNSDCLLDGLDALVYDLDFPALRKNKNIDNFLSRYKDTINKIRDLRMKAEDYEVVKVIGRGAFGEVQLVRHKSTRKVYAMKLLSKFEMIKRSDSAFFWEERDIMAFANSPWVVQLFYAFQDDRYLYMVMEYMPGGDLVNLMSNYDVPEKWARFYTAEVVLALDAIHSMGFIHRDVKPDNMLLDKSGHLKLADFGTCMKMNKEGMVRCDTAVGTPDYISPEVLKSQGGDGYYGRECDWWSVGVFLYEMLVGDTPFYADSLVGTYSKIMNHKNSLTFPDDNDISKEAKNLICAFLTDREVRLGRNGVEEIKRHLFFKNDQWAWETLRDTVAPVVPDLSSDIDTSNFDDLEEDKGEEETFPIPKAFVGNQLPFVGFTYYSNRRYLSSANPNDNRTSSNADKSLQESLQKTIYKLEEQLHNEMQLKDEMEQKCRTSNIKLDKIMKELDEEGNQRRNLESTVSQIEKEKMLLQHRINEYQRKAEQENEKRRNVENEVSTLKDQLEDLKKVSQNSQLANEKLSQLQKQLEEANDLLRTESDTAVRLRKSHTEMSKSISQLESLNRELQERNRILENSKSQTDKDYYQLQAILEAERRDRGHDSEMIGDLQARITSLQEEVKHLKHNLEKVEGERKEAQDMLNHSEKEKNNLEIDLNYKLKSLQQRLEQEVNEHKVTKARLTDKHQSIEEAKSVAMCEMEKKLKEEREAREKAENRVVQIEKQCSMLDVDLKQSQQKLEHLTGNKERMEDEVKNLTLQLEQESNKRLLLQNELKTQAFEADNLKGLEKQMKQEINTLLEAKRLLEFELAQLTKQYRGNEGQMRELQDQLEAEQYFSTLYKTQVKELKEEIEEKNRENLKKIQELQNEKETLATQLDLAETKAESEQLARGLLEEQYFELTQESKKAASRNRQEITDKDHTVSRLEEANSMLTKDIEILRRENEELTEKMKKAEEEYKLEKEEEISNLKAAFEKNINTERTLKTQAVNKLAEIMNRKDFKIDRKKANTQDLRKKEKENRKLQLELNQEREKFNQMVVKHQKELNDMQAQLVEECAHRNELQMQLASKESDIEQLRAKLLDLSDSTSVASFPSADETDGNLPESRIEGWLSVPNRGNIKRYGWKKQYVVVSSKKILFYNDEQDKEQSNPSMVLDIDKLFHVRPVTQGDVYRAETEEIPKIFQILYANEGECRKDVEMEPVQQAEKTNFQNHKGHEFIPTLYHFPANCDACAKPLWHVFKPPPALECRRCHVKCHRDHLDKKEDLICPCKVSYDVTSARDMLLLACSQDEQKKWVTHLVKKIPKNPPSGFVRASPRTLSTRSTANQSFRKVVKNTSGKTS
# test name: radiometric filter-binding kinase assay, Kinase HotSpot
# test conditions: compound 0.5 µM; ATP 10 µM

[
  {
    "compound": "C#Cc1cccc(Nc2ncnc3cc(OCCOC)c(OCCOC)cc23)c1",
    "residual activity (%)": 107
  },
  {
    "compound": "O=c1cc(N2CCNCC2)oc2c(-c3ccccc3)cccc12",
    "residual activity (%)": 104
  },
  {
    "compound": "NC(=O)c1ccc(N(C(N)=O)c2c(F)cccc2F)nc1-c1ccc(F)cc1F",
    "residual activity (%)": 108
  },
  {
    "compound": "Clc1ccc(Nc2nnc(Cc3ccncc3)c3ccccc23)cc1",
    "residual activity (%)": 110
  },
  {
    "compound": "COc1cc2nccc(Oc3ccc(NC(=S)NC(=O)c4ccccc4C)cc3)c2cc1OC",
    "residual activity (%)": 90.5
  },
  {
    "compound": "CCN1/C(=C/C(C)=O)Sc2ccc(OC)cc21",
    "residual activity (%)": 99.3
  },
  {
    "compound": "Nc1nc(Nc2ccc(S(N)(=O)=O)cc2)nn1C(=S)Nc1c(F)cccc1F",
    "residual activity (%)": 0.17
  },
  {
    "compound": "Cc1ccc(NC(=O)c2ccc(CN3CCN(C)CC3)cc2)cc1Nc1nc(-c2cccnc2)cs1",
    "residual activity (%)": 102
  },
  {
    "compound": "CC(C)[C@H](CO)Nc1nc(Nc2cccc(Cl)c2)c2ncn(C(C)C)c2n1",
    "residual activity (%)": 100
  },
  {
    "compound": "CC(C)(C)c1nc2c3ccc(F)cc3c3c(=O)[nH]ccc3c2[nH]1",
    "residual activity (%)": 74.9
  },
  {
    "compound": "O=c1cc(-c2cccc3c2Sc2ccccc2S3)oc(N2CCOCC2)c1",
    "residual activity (%)": 101
  },
  {
    "compound": "CS(=O)c1ccc(-c2nc(-c3ccc(F)cc3)c(-c3ccncc3)[nH]2)cc1 (configuration not stated)",
    "residual activity (%)": 102
  },
  {
    "compound": "Nc1n[nH]c2nnc(-c3c(-c4ccccc4)nn4ccccc34)cc12",
    "residual activity (%)": 100
  },
  {
    "compound": "Oc1ccc(-c2nc(-c3ccc(F)cc3)c(-c3ccncc3)[nH]2)cc1",
    "residual activity (%)": 101
  },
  {
    "compound": "COc1ccc(-c2cnc3c(-c4ccsc4)cnn3c2)cc1",
    "residual activity (%)": 95.7
  },
  {
    "compound": "O=C(NC(NC(=S)Nc1ccc(F)c([N+](=O)[O-])c1)C(Cl)(Cl)Cl)C(c1ccccc1)c1ccccc1 (configuration not stated)",
    "residual activity (%)": 99.8
  },
  {
    "compound": "Nc1nc(Nc2ccc(S(N)(=O)=O)cc2)nn1C(=O)c1c(F)cccc1F",
    "residual activity (%)": 42.6
  },
  {
    "compound": "O=C1Cc2c([nH]c3ccc([N+](=O)[O-])cc23)-c2ccccc2N1",
    "residual activity (%)": 91.2
  },
  {
    "compound": "Cc1cc2ncc(-c3ccccc3)nc2cc1C",
    "residual activity (%)": 100
  },
  {
    "compound": "CC(C)n1cnc2c(Nc3cccc(Cl)c3)nc(NCCO)nc21",
    "residual activity (%)": 101
  },
  {
    "compound": "CSc1nc(-c2ccc(F)cc2)c(-c2ccnc(NC(C)c3ccccc3)c2)[nH]1 (configuration not stated)",
    "residual activity (%)": 91.7
  },
  {
    "compound": "COc1cc2ncnc(Nc3ccc(F)c(Cl)c3)c2cc1OCCCN1CCOCC1",
    "residual activity (%)": 106
  }
]

* * *

# subject of test: CSK (human)
# test name: radiometric filter-binding kinase assay, Kinase HotSpot
# test conditions: compound 0.5 µM; ATP 10 µM
Let's look at some compounds and their measured residual activity.
measured property: residual activity (%)

[
  {
    "compound": "O=C1Nc2ccccc2/C1=C\\c1c(Cl)[nH]c2ccccc12",
    "unit name": "%",
    "observed result": 101
  },
  {
    "compound": "Clc1ccc(Nc2nnc(Cc3ccncc3)c3ccccc23)cc1",
    "unit name": "%",
    "observed result": 87.6
  },
  {
    "compound": "Nc1nc(Nc2ccc(S(N)(=O)=O)cc2)nn1C(=S)Nc1c(F)cccc1F",
    "unit name": "%",
    "observed result": 76.8
  },
  {
    "compound": "CCCNC(=O)Nc1ccc(Oc2ncnc3cc(OC)c(OC)cc23)cc1Cl",
    "unit name": "%",
    "observed result": 100
  },
  {
    "compound": "CC(C)n1cnc2c(Nc3cccc(Cl)c3)nc(NCCO)nc21",
    "unit name": "%",
    "observed result": 98.2
  },
  {
    "compound": "CSc1nc(-c2ccc(F)cc2)c(-c2ccnc(NC(C)c3ccccc3)c2)[nH]1 (configuration not stated)",
    "unit name": "%",
    "observed result": 82.4
  },
  {
    "compound": "O=C1Cc2c([nH]c3ccc([N+](=O)[O-])cc23)-c2ccccc2N1",
    "unit name": "%",
    "observed result": 96.6
  },
  {
    "compound": "COc1cc2ncnc(Nc3ccc(F)c(Cl)c3)c2cc1OCCCN1CCOCC1",
    "unit name": "%",
    "observed result": 95.4
  },
  {
    "compound": "Nc1nc(Nc2ccc(S(N)(=O)=O)cc2)nn1C(=O)c1c(F)cccc1F",
    "unit name": "%",
    "observed result": 88.9
  },
  {
    "compound": "COc1cc2nccc(Oc3ccc(NC(=S)NC(=O)c4ccccc4C)cc3)c2cc1OC",
    "unit name": "%",
    "observed result": 75.3
  },
  {
    "compound": "CC(C)(C)c1nc2c3ccc(F)cc3c3c(=O)[nH]ccc3c2[nH]1",
    "unit name": "%",
    "observed result": 114
  },
  {
    "compound": "Nc1n[nH]c2nnc(-c3c(-c4ccccc4)nn4ccccc34)cc12",
    "unit name": "%",
    "observed result": 98
  },
  {
    "compound": "O=c1cc(N2CCNCC2)oc2c(-c3ccccc3)cccc12",
    "unit name": "%",
    "observed result": 89.7
  },
  {
    "compound": "CS(=O)c1ccc(-c2nc(-c3ccc(F)cc3)c(-c3ccncc3)[nH]2)cc1 (configuration not stated)",
    "unit name": "%",
    "observed result": 87.7
  },
  {
    "compound": "C#Cc1cccc(Nc2ncnc3cc(OCCOC)c(OCCOC)cc23)c1",
    "unit name": "%",
    "observed result": 100
  },
  {
    "compound": "Cc1cc2ncc(-c3ccccc3)nc2cc1C",
    "unit name": "%",
    "observed result": 96.5
  },
  {
    "compound": "Oc1ccc(-c2nc(-c3ccc(F)cc3)c(-c3ccncc3)[nH]2)cc1",
    "unit name": "%",
    "observed result": 93.7
  },
  {
    "compound": "O=C1Nc2cc(Br)ccc2/C1=C1/Nc2ccccc2/C1=N\\O",
    "unit name": "%",
    "observed result": 65.8
  },
  {
    "compound": "O=C(NC(NC(=S)Nc1ccc(F)c([N+](=O)[O-])c1)C(Cl)(Cl)Cl)C(c1ccccc1)c1ccccc1 (configuration not stated)",
    "unit name": "%",
    "observed result": 99.3
  },
  {
    "compound": "COc1ccc(-c2cnc3c(-c4ccsc4)cnn3c2)cc1",
    "unit name": "%",
    "observed result": 95.3
  },
  {
    "compound": "O=C(Nc1ccc(Cl)cc1)c1ccccc1NCc1ccncc1",
    "unit name": "%",
    "observed result": 101
  },
  {
    "compound": "NC(=O)c1ccc(N(C(N)=O)c2c(F)cccc2F)nc1-c1ccc(F)cc1F",
    "unit name": "%",
    "observed result": 90
  }
]
